# Test system: 463943-066-T-J2-PDC complex spheroid growth
# Assay Comment: Anticancer human tumor 463943-066-T-J2-PDC patient-derived colon adenocarcinoma cell line growth inhibition [Asc]
# Condition Info: second compound 0.1 µM; first compound 0.316 µM; stronger effect = lower value
Recorded Metric: viability, T/C (%)
Could you give me the number in %? Just the number is fine.

Compound	Study System	Unit	Recorded Measurement
C=C(F)C(=O)N1CCN(c2nc(OCC3CCCN3C)nc3c2CCN(c2cccc4cccc(Cl)c24)C3)CC1CC#N (configuration not stated) + Cc1c(S(C)(=O)=O)c(-c2cc(F)cc(N3CCN(c4ccc(NS(=O)(=O)c5ccc(NC(CCN6CCC(C(=O)OCCCP(=O)(O)O)CC6)CSc6ccccc6)c(S(=O)(=O)C(F)(F)F)c5)cc4)CC3)c2)c(-c2ccc(Cl)cc2)n1C(C)C	463943-066-T-J2-PDC complex spheroid growth	%	90.8

Could you now look at the following compound, please?
Report measured viability, T/C; entry is CNC(C)C(=O)NC1CN(S(=O)(=O)c2cccc(S(=O)(=O)N3CCC4CCC(C(=O)NC(c5ccccc5)c5ccccc5)N4C(=O)C(NC(=O)C(C)NC)C3)c2)CCC2CCC(C(=O)NC(c3ccccc3)c3ccccc3)N2C1=O (configuration not stated) + Cc1c(S(C)(=O)=O)c(-c2cc(F)cc(N3CCN(c4ccc(NS(=O)(=O)c5ccc(NC(CCN6CCC(C(=O)OCCCP(=O)(O)O)CC6)CSc6ccccc6)c(S(=O)(=O)C(F)(F)F)c5)cc4)CC3)c2)c(-c2ccc(Cl)cc2)n1C(C)C
98.8

====

# Test system: 463943-066-T-J2-PDC complex spheroid growth
# Assay Comment: Anticancer human tumor 463943-066-T-J2-PDC cell line growth inhibition [Asc];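 also: compound exposure lasted 7 days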;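 as to viability, T/C: 100% = DMSO vehicle control wells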
# Condition Info: second compound 0.00316 µM; first compound 0.0316 µM; stronger effect = lower value
# if measured viability, T/C < 90%: Met  # else: Not met

Example results:
Molecule	Answer Label
O=C(c1ccc(F)c(F)c1Nc1ccc(I)cc1F)N1CC(O)([C@@H]2CCCCN2)C1 + CNC(C)C(=O)NC1CN(S(=O)(=O)c2cccc(S(=O)(=O)N3CCC4CCC(C(=O)NC(c5ccccc5)c5ccccc5)N4C(=O)C(NC(=O)C(C)NC)C3)c2)CCC2CCC(C(=O)NC(c3ccccc3)c3ccccc3)N2C1=O	Met
Cn1ncnc1[C@H]1c2n[nH]c(=O)c3cc(F)cc(c23)N[C@@H]1c1ccc(F)cc1 + CNC(C)C(=O)NC1CN(S(=O)(=O)c2cccc(S(=O)(=O)N3CCC4CCC(C(=O)NC(c5ccccc5)c5ccccc5)N4C(=O)C(NC(=O)C(C)NC)C3)c2)CCC2CCC(C(=O)NC(c3ccccc3)c3ccccc3)N2C1=O	Not met

Okay, now this molecule:
Would you kindly verify if viability, T/C of C#Cc1c(F)ccc2cc(O)cc(-c3ncc4c(N5CC6CCC(C5)N6)nc(OCC56CCCN5CC(F)C6)nc4c3F)c12 (stereo not given) + CNC(C)C(=O)NC1CN(S(=O)(=O)c2cccc(S(=O)(=O)N3CCC4CCC(C(=O)NC(c5ccccc5)c5ccccc5)N4C(=O)C(NC(=O)C(C)NC)C3)c2)CCC2CCC(C(=O)NC(c3ccccc3)c3ccccc3)N2C1=O is strictly less than 90%?
Not met

====

# Tested on: 463943-066-T-J2-PDC complex spheroid growth
# Assay Comment: Anticancer human tumor 463943-066-T-J2-PDC cell line growth inhibition [Asc];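 also: compound exposure lasted 7 days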;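 as to viability, T/C: 100% = DMSO vehicle control wells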
# Condition Info: second compound 0.00949 µM; first compound 0.01 µM; stronger effect = lower value
Recorded measurements of viability, T/C, one per entry
Could you give me the number in %? Just the number is fine.

Worked examples follow.
Compound	Unit	viability, T/C
NC1CCC(NC2CC2c2ccccc2)CC1 (stereo unspecified) + CCN1C(C(=O)NC23CCC(C(=O)O)(CC2)CC3)C(c2cccc(Cl)c2F)C2(C(=O)Nc3cc(Cl)ccc32)C12CCCCC2	%	91.6
O=C(c1ccc(F)c(F)c1Nc1ccc(I)cc1F)N1CC(O)([C@@H]2CCCCN2)C1 + CCN1C(C(=O)NC23CCC(C(=O)O)(CC2)CC3)C(c2cccc(Cl)c2F)C2(C(=O)Nc3cc(Cl)ccc32)C12CCCCC2	%	78.7
CNC(C)C(=O)NC1CN(S(=O)(=O)c2cccc(S(=O)(=O)N3CCC4CCC(C(=O)NC(c5ccccc5)c5ccccc5)N4C(=O)C(NC(=O)C(C)NC)C3)c2)CCC2CCC(C(=O)NC(c3ccccc3)c3ccccc3)N2C1=O (stereo unspecified) + CCN1C(C(=O)NC23CCC(C(=O)O)(CC2)CC3)C(c2cccc(Cl)c2F)C2(C(=O)Nc3cc(Cl)ccc32)C12CCCCC2	%	93.3

Report measured viability, T/C; entry is CCN1CCN(Cc2ccc(Nc3ncc(F)c(-c4cc(F)c5nc(C)n(C(C)C)c5c4)n3)nc2)CC1 + CCN1C(C(=O)NC23CCC(C(=O)O)(CC2)CC3)C(c2cccc(Cl)c2F)C2(C(=O)Nc3cc(Cl)ccc32)C12CCCCC2
92.3

Report measured viability, T/C; entry is COc1c(OCCCN2CCOCC2)ccc2c3n(c(=NC(=O)c4cnc(N)nc4)nc12)CCN3 + CCN1C(C(=O)NC23CCC(C(=O)O)(CC2)CC3)C(c2cccc(Cl)c2F)C2(C(=O)Nc3cc(Cl)ccc32)C12CCCCC2
82.9

Report measured viability, T/C; entry is Cn1ncnc1[C@H]1c2n[nH]c(=O)c3cc(F)cc(c23)N[C@@H]1c1ccc(F)cc1 + CCN1C(C(=O)NC23CCC(C(=O)O)(CC2)CC3)C(c2cccc(Cl)c2F)C2(C(=O)Nc3cc(Cl)ccc32)C12CCCCC2
97.2

====

# Tested on: 463943-066-T-J2-PDC complex spheroid growth
# Assay Comment: Anticancer human tumor 463943-066-T-J2-PDC cell line growth inhibition [Asc];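 also: compound exposure lasted 7 days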;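 as to viability, T/C: 100% = DMSO vehicle control wells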
# Condition Info: second compound 0.3 µM; first compound 0.01 µM; stronger effect = lower value
Recorded measurements of viability, T/C, one per entry
Could you give me the number in %? Just the number is fine.

Compound	Study System	Recorded Measurement
CCN1CCN(Cc2ccc(Nc3ncc(F)c(-c4cc(F)c5nc(C)n(C(C)C)c5c4)n3)nc2)CC1 + CCN1C(C(=O)NC23CCC(C(=O)O)(CC2)CC3)C(c2cccc(Cl)c2F)C2(C(=O)Nc3cc(Cl)ccc32)C12CCCCC2	463943-066-T-J2-PDC complex spheroid growth	76.9
CNC(C)C(=O)NC1CN(S(=O)(=O)c2cccc(S(=O)(=O)N3CCC4CCC(C(=O)NC(c5ccccc5)c5ccccc5)N4C(=O)C(NC(=O)C(C)NC)C3)c2)CCC2CCC(C(=O)NC(c3ccccc3)c3ccccc3)N2C1=O (stereo not drawn) + CCN1C(C(=O)NC23CCC(C(=O)O)(CC2)CC3)C(c2cccc(Cl)c2F)C2(C(=O)Nc3cc(Cl)ccc32)C12CCCCC2	463943-066-T-J2-PDC complex spheroid growth	81.1

Could you now look at the following compound, please?
Report measured viability, T/C; entry is O=C(c1ccc(F)c(F)c1Nc1ccc(I)cc1F)N1CC(O)([C@@H]2CCCCN2)C1 + CCN1C(C(=O)NC23CCC(C(=O)O)(CC2)CC3)C(c2cccc(Cl)c2F)C2(C(=O)Nc3cc(Cl)ccc32)C12CCCCC2
65.2

====

# Tested on: 463943-066-T-J2-PDC complex spheroid growth
# Assay Comment: Anticancer human tumor 463943-066-T-J2-PDC cell line growth inhibition [Asc];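 also: compound exposure lasted 7 days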
# Condition Info: curve of first compound; second compound 0.1 µM
Recorded measurements of IC50, one per entry

Worked examples follow.
Molecule	IC50
COc1c(OCCCN2CCOCC2)ccc2c3n(c(=NC(=O)c4cnc(N)nc4)nc12)CCN3 + Cc1c(S(C)(=O)=O)c(-c2cc(F)cc(N3CCN(c4ccc(NS(=O)(=O)c5ccc(NC(CCN6CCC(C(=O)OCCCP(=O)(O)O)CC6)CSc6ccccc6)c(S(=O)(=O)C(F)(F)F)c5)cc4)CC3)c2)c(-c2ccc(Cl)cc2)n1C(C)C	406 nM
Cc1nc(N2CCC3(CC2)COC(C)C3N)c(CO)nc1Sc1ccnc(N)c1Cl (stereo not drawn) + CNC(C)C(=O)NC1CN(S(=O)(=O)c2cccc(S(=O)(=O)N3CCC4CCC(C(=O)NC(c5ccccc5)c5ccccc5)N4C(=O)C(NC(=O)C(C)NC)C3)c2)CCC2CCC(C(=O)NC(c3ccccc3)c3ccccc3)N2C1=O	> 3000 nM
O=C(c1ccc(F)c(F)c1Nc1ccc(I)cc1F)N1CC(O)([C@@H]2CCCCN2)C1 + Cc1c(S(C)(=O)=O)c(-c2cc(F)cc(N3CCN(c4ccc(NS(=O)(=O)c5ccc(NC(CCN6CCC(C(=O)OCCCP(=O)(O)O)CC6)CSc6ccccc6)c(S(=O)(=O)C(F)(F)F)c5)cc4)CC3)c2)c(-c2ccc(Cl)cc2)n1C(C)C	111 nM

Report measured IC50; entry is C=CC(=O)N1CCN(c2nc(=O)n(-c3c(C)ccnc3C(C)C)c3nc(-c4c(O)cccc4F)c(F)cc23)C(C)C1 (stereo not drawn) + Cc1c(S(C)(=O)=O)c(-c2cc(F)cc(N3CCN(c4ccc(NS(=O)(=O)c5ccc(NC(CCN6CCC(C(=O)OCCCP(=O)(O)O)CC6)CSc6ccccc6)c(S(=O)(=O)C(F)(F)F)c5)cc4)CC3)c2)c(-c2ccc(Cl)cc2)n1C(C)C
> 10000 nM

Report measured IC50; entry is Cn1ncnc1[C@H]1c2n[nH]c(=O)c3cc(F)cc(c23)N[C@@H]1c1ccc(F)cc1 + CNC(C)C(=O)NC1CN(S(=O)(=O)c2cccc(S(=O)(=O)N3CCC4CCC(C(=O)NC(c5ccccc5)c5ccccc5)N4C(=O)C(NC(=O)C(C)NC)C3)c2)CCC2CCC(C(=O)NC(c3ccccc3)c3ccccc3)N2C1=O
> 100 nM

Report measured IC50; entry is NC1CCC(NC2CC2c2ccccc2)CC1 (stereo not drawn) + Cc1c(S(C)(=O)=O)c(-c2cc(F)cc(N3CCN(c4ccc(NS(=O)(=O)c5ccc(NC(CCN6CCC(C(=O)OCCCP(=O)(O)O)CC6)CSc6ccccc6)c(S(=O)(=O)C(F)(F)F)c5)cc4)CC3)c2)c(-c2ccc(Cl)cc2)n1C(C)C
> 100 nM

Report measured IC50; entry is O=C(c1cc(Cc2n[nH]c(=O)c3ccccc23)ccc1F)N1CCN(C(=O)C2CC2)CC1 + Cc1c(S(C)(=O)=O)c(-c2cc(F)cc(N3CCN(c4ccc(NS(=O)(=O)c5ccc(NC(CCN6CCC(C(=O)OCCCP(=O)(O)O)CC6)CSc6ccccc6)c(S(=O)(=O)C(F)(F)F)c5)cc4)CC3)c2)c(-c2ccc(Cl)cc2)n1C(C)C
> 10000 nM

Report measured IC50; entry is O=C(c1cc(Cc2n[nH]c(=O)c3ccccc23)ccc1F)N1CCN(C(=O)C2CC2)CC1 + CNC(C)C(=O)NC1CN(S(=O)(=O)c2cccc(S(=O)(=O)N3CCC4CCC(C(=O)NC(c5ccccc5)c5ccccc5)N4C(=O)C(NC(=O)C(C)NC)C3)c2)CCC2CCC(C(=O)NC(c3ccccc3)c3ccccc3)N2C1=O
> 10000 nM
